Origin of values: patent US11208422B2

biological target: recombinant TASK-1 (Homo sapiens (Human), UniProt O14649); test: Inhibition of recombinant TASK-1 in stably transfected CHO cells (KCl-induced depolarization, voltage-sensitive dye, FLIPR); assay type: cell-based; settings: depolarization induced by 40 mM potassium chloride, some mean values from multiple determinations
Sequence (O14649 whole entry): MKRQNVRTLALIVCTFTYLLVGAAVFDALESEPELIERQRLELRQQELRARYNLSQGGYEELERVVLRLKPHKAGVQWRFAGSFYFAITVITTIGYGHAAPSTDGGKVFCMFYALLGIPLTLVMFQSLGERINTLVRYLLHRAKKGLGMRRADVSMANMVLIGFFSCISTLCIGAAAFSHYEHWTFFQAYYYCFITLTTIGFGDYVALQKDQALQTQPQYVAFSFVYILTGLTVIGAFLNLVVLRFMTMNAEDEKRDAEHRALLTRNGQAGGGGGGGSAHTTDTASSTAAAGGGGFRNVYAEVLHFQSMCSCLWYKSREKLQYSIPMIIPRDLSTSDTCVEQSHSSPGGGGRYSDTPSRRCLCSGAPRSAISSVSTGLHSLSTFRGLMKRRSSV
Reported values of IC50 for individual entries
# output: bare number, implied unit nM

Before answering, review these 5 worked examples.
{"compound": "O=C(c1ccccc1F)N1C2CCC1CN(Cc1c(-c3ccc(Cl)cc3)nc3ccccn13)CC2 (single isomer, unassigned) [Example 89]", "IC50 (nM)": 310}
{"compound": "CC(C)c1ccc(-c2nc3ncccn3c2CN2CC3CCC2CCN3C(=O)c2ccccc2F)cc1 (stereo not shown) [Example 47]", "IC50 (nM)": 3100}
{"compound": "COc1ccc(Cl)c(C(=O)N2CCC3CCC2CN3Cc2c(-c3ccc(Cl)cc3)nc3ncccn23)n1 (stereo not shown) [Example 23]", "IC50 (nM)": 3000}
{"compound": "COc1ccc(F)c(C(=O)N2C3CCN(Cc4c(-c5ccc(Cl)cc5)nc5ccccn45)CC2COC3)n1 (racemic) [Example 92]", "IC50 (nM)": 85}
{"compound": "COc1ccc(Cl)c(C(=O)N2CCC3CCC2CN3Cc2c(-c3ccc(C(C)C)cc3)nc3ncccn23)n1 (stereo not shown) [Example 43]", "IC50 (nM)": 2500}

Query COc1cccc(C(=O)N2CCC3CCC2CN3Cc2c(-c3ccc(C(C)C)cc3)nc3ncccn23)n1 (stereo not shown) [Example 41] yields IC50 of 2200

Query O=C(c1ccccc1F)N1C2CCN(Cc3c(-c4ccc(Cl)cc4)nc4ncccn34)CC1COC2 (racemic) yields IC50 of 5000

Query COc1ccc(F)c(C(=O)N2C3CCC2CN(Cc2c(-c4ccc(Cl)cc4)nc4ccccn24)CC3)n1 (single isomer, unassigned) [Example 79] yields IC50 of 290

Query COc1cccc(C(=O)N2C3CCN(Cc4c(-c5ccc(Cl)cc5)nc5ccccn45)CC2COC3)n1 (racemic) yields IC50 of 120

Query COc1ccc(Cl)c(C(=O)N2C3CCC2CN(Cc2c(-c4ccc(Cl)cc4)nc4ncccn24)CC3)n1 (racemic) yields IC50 of 290

Query COc1cccc(C(=O)N2CCC3CCC2CN3Cc2c(-c3ccc(Cl)cc3)nc3ccccn23)n1 (stereo not shown) [Example 37] yields IC50 of 30000

Query O=C(c1ccccc1F)N1C2CCN(Cc3c(-c4ccc(Cl)cc4)nc4ccccn34)CC1COC2 (racemic) yields IC50 of 740

Query COc1ccc(F)c(C(=O)N2CCC3CCC2CN3Cc2c(-c3ccc(Cl)cc3)nc3ncccn23)n1 (single isomer, unassigned) [Example 17] yields IC50 of 3300

###

target: recombinant TASK-3 (Homo sapiens (Human)); assay: Inhibition of recombinant TASK-3 in stably transfected CHO cells (KCl-induced depolarization, voltage-sensitive dye, FLIPR); type: cell-based; conditions: depolarization induced by 40 mM potassium chloride, some mean values from multiple determinations
Sequence (Q9NPC2 whole entry): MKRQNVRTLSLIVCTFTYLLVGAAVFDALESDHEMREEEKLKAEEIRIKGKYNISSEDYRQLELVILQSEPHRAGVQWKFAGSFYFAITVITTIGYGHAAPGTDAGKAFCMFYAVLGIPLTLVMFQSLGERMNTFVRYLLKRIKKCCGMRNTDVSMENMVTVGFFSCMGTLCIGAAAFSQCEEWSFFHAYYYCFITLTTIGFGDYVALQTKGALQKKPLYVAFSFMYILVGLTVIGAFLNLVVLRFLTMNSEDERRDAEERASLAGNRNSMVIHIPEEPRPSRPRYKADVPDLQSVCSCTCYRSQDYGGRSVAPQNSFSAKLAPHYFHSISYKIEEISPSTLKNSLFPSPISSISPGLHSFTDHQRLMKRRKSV
measurement.type: pIC50
pIC50 here: minus log base 10 of the concentration, concentration in moles per litre.

Before answering, review these 2 worked examples.
{"compound": "COc1cccc(C(=O)N2CCC3CCC2CN3Cc2c(-c3ccc(Cl)cc3)nc3ccccn23)n1 (stereo not shown) [Example 26]", "pIC50": 8.16}
{"compound": "COc1cccc(C(=O)N2C3CCC2CN(Cc2c(-c4ccc(Cl)cc4)nc4ccccn24)CC3)n1 (single isomer, unassigned) [Example 90]", "pIC50": 8.55}

Query COc1cccc(C(=O)N2C3CCC2CN(Cc2c(-c4ccc(Cl)cc4)nc4ncccn24)CC3)n1 (single isomer, unassigned) [Example 86] yields pIC50 of 7.55

Query CC(C)c1ccc(-c2nc3ncccn3c2CN2CC3CCC2CCN3C(=O)C2CCCC2)cc1 (stereo not shown) yields pIC50 of 6.85

###

target: recombinant TASK-3 (Homo sapiens (Human)); experiment: Inhibition of recombinant TASK-3 in stably transfected CHO cells (KCl-induced depolarization, voltage-sensitive dye, FLIPR); type: cell-based; details: depolarization induced by 40 mM potassium chloride, some mean values from multiple determinations
pIC50: −log10 of the molar value.
Binary call on pIC50: T from 7 upward, F beneath that.

Recorded results for 3 molecules are shown here.
{"molecule": "COc1cccc(C(=O)N2CCC3CCC2CN3Cc2c(-c3ccc(Cl)cn3)nc3ccccn23)n1 (stereo not drawn)", "assigned.class": "F"}
{"molecule": "Nc1nonc1C(=O)N1CCC2CCC1CN2Cc1c(-c2ccc(Cl)cc2)nc2ccccn12 (stereo not drawn) [Example 40]", "assigned.class": "T"}
{"molecule": "COc1cccc(C(=O)N2C3CCN(Cc4c(-c5ccc(Cl)cc5)nc5ccccn45)CC2COC3)n1 (racemic)", "assigned.class": "T"}

Task item: Check if pIC50 >= 7 (inclusive). Item: COc1cccc(C(=O)N2C3CCC2CN(Cc2c(-c4ccc(C(C)C)cc4)nc4ncccn24)CC3)n1 (stereo not drawn) [Example 104]
Reply: T

Task item: Check if pIC50 >= 7 (inclusive). Item: COc1ccc(Cl)c(C(=O)N2CCC3CCC2CN3Cc2c(-c3ccc(Cl)cc3)nc3ccccn23)n1 (stereo not drawn) [Example 39]
Reply: T

Task item: Check if pIC50 >= 7 (inclusive). Item: COc1ccc(F)c(C(=O)N2C3CCN(Cc4c(-c5ccc(Cl)cc5)nc5ccccn45)CC2COC3)n1 (racemic) [Example 92]
Reply: T

Task item: Check if pIC50 >= 7 (inclusive). Item: COc1cccc(C(=O)N2CCC3CCC(C2)N3Cc2c(-c3ccc(C(C)C)cc3)nc3ncccn23)n1 (stereo not drawn) [Example 60]
Reply: F

###

biological target: recombinant TASK-3 (Homo sapiens (Human)); assay: Inhibition of recombinant TASK-3 in stably transfected CHO cells (KCl-induced depolarization, voltage-sensitive dye, FLIPR); assay type: cell-based; conditions: depolarization induced by 40 mM potassium chloride, some mean values from multiple determinations
pIC50: −log10 of the molar value.
Each record gets a class by pIC50: lower (below 7), middle (7 to below 8), upper (8 or more)

Recorded results for 2 compounds are shown here.
{"compound": "COc1ccc(F)c(C(=O)N2C3CCC2CN(Cc2c(-c4ccc(C(C)C)cc4)nc4ncccn24)CC3)n1 (centres unmarked) [Example 102]", "assigned.class": "middle"}
{"compound": "O=C(c1ccccc1F)N1C2CCN(Cc3c(-c4ccc(Cl)cc4)nc4ccccn34)CC1COC2 (racemic) [Example 71]", "assigned.class": "middle"}

Task item: The entry to classify is CC(C)c1ccc(-c2nc3ncccn3c2CN2C3CCC2CN(C(=O)c2cccc(OC(F)F)n2)CC3)cc1 (centres unmarked) [Example 56] ; which class holds it?
Reply: lower

###

target: recombinant TASK-3 (Homo sapiens (Human)); assay: Inhibition of recombinant TASK-3 in stably transfected CHO cells (KCl-induced depolarization, voltage-sensitive dye, FLIPR); format: cell-based; conditions: depolarization induced by 40 mM potassium chloride, some mean values from multiple determinations
measurement.type: pIC50
pIC50 here: minus log base 10 of the concentration, concentration in moles per litre.

{"compound": "CC(C)c1ccc(-c2nc3ncccn3c2CN2C3CCC2CN(C(=O)C2CCCC2)CC3)cc1 (stereo not shown) [Example 57]", "tgt": "recombinant TASK-3 (Homo sapiens (Human))", "pIC50": 5.70}
{"compound": "O=C(c1ccccc1F)N1C2CCC1CN(Cc1c(-c3ccc(Cl)cc3)nc3ccccn13)CC2 (single isomer, unassigned) [Example 88]", "tgt": "recombinant TASK-3 (Homo sapiens (Human))", "pIC50": 8.80}
{"compound": "Cc1nonc1C(=O)N1C2CCN(Cc3c(-c4ccc(Cl)cc4)nc4ccccn34)CC1COC2 (racemic)", "tgt": "recombinant TASK-3 (Homo sapiens (Human))", "pIC50": 8.30}

Switching to the query record.
Query COc1ccc(F)c(C(=O)N2C3CCC2CN(Cc2c(-c4ccc(Cl)cn4)nc4ccccn24)CC3)n1 (single isomer, unassigned) [Example 15] yields pIC50 of 8.14

###

biological target: recombinant TASK-1 (Homo sapiens (Human), UniProt O14649); test: Inhibition of recombinant TASK-1 in stably transfected CHO cells (KCl-induced depolarization, voltage-sensitive dye, FLIPR); assay type: cell-based; details: depolarization induced by 40 mM potassium chloride, some mean values from multiple determinations
Each record gets a class by IC50: bucket A = under 1000 nM, bucket B = from 1000 nM up to 6000 nM, bucket C = 6000 nM and over

Recorded results for 5 compounds are shown here.
{"compound": "CC(C)c1ccc(-c2nc3ncccn3c2CN2C3CCC2CN(C(=O)c2cccc(OC(F)F)n2)CC3)cc1 (centres unmarked) [Example 56]", "tgt": "recombinant TASK-1 (Homo sapiens (Human), UniProt O14649)", "assigned.class": "bucket C"}
{"compound": "COc1cccc(C(=O)N2CCC3CCC2CN3Cc2c(-c3ccc(C(C)C)cc3)nc3ncccn23)n1 (centres unmarked) [Example 48]", "tgt": "recombinant TASK-1 (Homo sapiens (Human), UniProt O14649)", "assigned.class": "bucket C"}
{"compound": "COc1cccc(C(=O)N2C3CCC2CN(Cc2c(-c4ccc(Cl)cn4)nc4ccccn24)CC3)n1 (single isomer, unassigned) [Example 85]", "tgt": "recombinant TASK-1 (Homo sapiens (Human), UniProt O14649)", "assigned.class": "bucket C"}
{"compound": "COc1ccc(Cl)c(C(=O)N2CCC3CCC2CN3Cc2c(-c3ccc(Cl)cn3)nc3ccccn23)n1 (centres unmarked) [Example 20]", "tgt": "recombinant TASK-1 (Homo sapiens (Human), UniProt O14649)", "assigned.class": "bucket B"}
{"compound": "COc1cccc(C(=O)N2CCC3CCC2CN3Cc2c(-c3ccc(Cl)cn3)nc3ccccn23)n1 (centres unmarked) [Example 18]", "tgt": "recombinant TASK-1 (Homo sapiens (Human), UniProt O14649)", "assigned.class": "bucket B"}

Task item: The entry to classify is O=C(c1ccccc1F)N1CCC2CCC1CN2Cc1c(-c2ccc(Cl)cc2)nc2ccccn12 (centres unmarked) [Example 36] ; which class holds it?
Reply: bucket C

Task item: The entry to classify is CC(C)c1ccc(-c2nc3ncccn3c2CN2C3CCC2CN(C(=O)c2ccccc2F)CC3)cc1 (centres unmarked) [Example 63] ; which class holds it?
Reply: bucket C

Task item: The entry to classify is O=C(c1cccc(OC(F)(F)F)n1)N1CCC2CCC1CN2Cc1c(-c2ccc(Cl)cc2)nc2ncccn12 (centres unmarked) [Example 65] ; which class holds it?
Reply: bucket B

Task item: The entry to classify is O=C(c1cccc(OC(F)(F)F)n1)N1CCC2CCC1CN2Cc1c(-c2ccc(Cl)cc2)nc2ncccn12 (centres unmarked) [Example 66] ; which class holds it?
Reply: bucket A

Task item: The entry to classify is COc1ccc(F)c(C(=O)N2C3CCC2CN(Cc2c(-c4ccc(Cl)cc4)nc4ncccn24)CC3)n1 (single isomer, unassigned) [Example 82] ; which class holds it?
Reply: bucket A

Task item: The entry to classify is COc1cccc(C(=O)N2C3CCN(Cc4c(-c5ccc(Cl)cc5)nc5ncccn45)CC2COC3)n1 (racemic) [Example 75] ; which class holds it?
Reply: bucket B
